Target protein (sequence): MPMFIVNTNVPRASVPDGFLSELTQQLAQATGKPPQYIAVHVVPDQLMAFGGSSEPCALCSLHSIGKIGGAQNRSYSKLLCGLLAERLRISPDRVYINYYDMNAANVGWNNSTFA
measurement-name: IC50 (µM)
The reply should contain only the number, in µM.

Here are 5 molecules together with their reported answers.
Query COc1ccc(C2=NOC(CC(=O)Oc3cc(C)ccc3C(C)C)C2)cc1 (stereo unspecified) yields IC50 of 55.3

Measured IC50 of COC(=O)CC1CC(c2ccc(OC(=O)CC3CC(c4ccc(OC)cc4)=NO3)cc2)=NO1 (stereo unspecified) : 37.2

The reported value for COc1ccc(C2=NOC(CC(=O)O)C2)cc1 (stereo unspecified) in terms of IC50 is 16.7

// IC50 lookup, molecule = COc1cc(C2=NOC(COc3ccc(C=O)cc3)C2)ccc1O (stereo unspecified) , result: 7.3

The molecule O=C(O)CC1CC(c2ccc(O)cc2)=NO1 (stereo unspecified) showed IC50 equal to 15.2

Consider now this further molecule.
The reported value for COc1ccc(C2=NOC(C(C)=O)C2)cc1OC (stereo unspecified) in terms of IC50 is 35.4
